Assay system: Histone deacetylase (Homo sapiens) (UniProt Q13547+O15379+Q9UBN7+Q92769+Q9UQL6+Q8WUI4+Q9BY41+Q96DB2+P56524+Q9UKV0+Q969S8);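 also: HDAC activity read out by fluorescence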
Test conditions: HeLa, at 10 µM
Description: Inhibition of HDAC in human HeLa cells at 10 uM by fluorescent activity assay
The reader will find reported inhibition values listed item by item below.
Measured property: inhibition (%)

INSERT INTO results (smiles_repr, measurement_units, comparison_sign, observed_result) VALUES
  ('O=C(CCCC1CCN(C(=O)Cc2ccccc2)CC1)NO', '%', '=', 80),
  ('O=C(CN1CCN(S(=O)(=O)Cc2ccccc2)CC1)NO', '%', '=', 16),
  ('O=C(CN1CCN(C(=O)Cc2ccccc2)CC1)NO', '%', '=', 6),
  ('O=C(CCCC1CCN(C(=O)c2ccccc2)CC1)NO', '%', '=', 69),
  ('O=C(CC1CCN(S(=O)(=O)c2ccccc2)CC1)NO', '%', '=', 41),
  ('O=C(CCN1CCN(C(=O)Cc2ccccc2)CC1)NO', '%', '=', 0),
  ('O=C(CCCC1CCN(C(=O)Nc2ccccc2)CC1)NO', '%', '=', 86),
  ('O=C(CCCC1CCN(C(=O)NCc2ccccc2)CC1)NO', '%', '=', 86),
  ('O=C(NO)C1CCN(S(=O)(=O)c2ccccc2)CC1', '%', '=', 29),
  ('O=C(CC1CCN(S(=O)(=O)Cc2ccccc2)CC1)NO', '%', '=', 21),
  ('O=C(CCCN1CCN(S(=O)(=O)Cc2ccccc2)CC1)NO', '%', '<', 10),
  ('O=C(CCCN1CCN(S(=O)(=O)c2ccccc2)CC1)NO', '%', '=', 30);

All values here come from ChEMBL document CHEMBL1759961.
